System: 171881-019-R-J1-PDC tumor spheroids, viability
Assay protocol: Anticancer human tumor 171881-019-R-J1-PDC patient-derived invasive breast carcinoma cell line growth inhibition [GQUAD]
Cond: second compound 0.316 µM; first compound 0.316 µM; active compounds read low; spheroids with HUVEC and MSC
Readout: viability, T/C (%)
Just the number please, in %, no unit attached.

*Q* Provide value of viability, T/C for this record tested with 171881-019-R-J1-PDC tumor spheroids, viability: CCc1c2c(nc3ccc(O)cc13)-c1cc3c(c(=O)n1C2)COC(=O)[C@]3(O)CC + Cc1cnc(CNC(=O)c2c(=O)c3ccc(N4CCCN(C)CC4)nc3n3c2sc2ccccc23)cn1
*A* 18.8

*Q* Provide value of viability, T/C for this record tested with 171881-019-R-J1-PDC tumor spheroids, viability: CC1COCCN1c1cc(-c2ccnn2C)c2ccnc(-c3ccn[nH]3)c2n1 (stereo not given) + CN(C)c1ccc(Nc2c3ccc(NC(=O)CCN4CCCC4)cc3nc3cc(NC(=O)CCN4CCCC4)ccc23)cc1
*A* 10.3

*Q* Provide value of viability, T/C for this record tested with 171881-019-R-J1-PDC tumor spheroids, viability: CC(=O)O[C@H]1C(=O)[C@@]2(C)[C@H]([C@H](OC(=O)c3ccccc3)[C@]3(O)C[C@H](OC(=O)[C@H](O)[C@@H](NC(=O)c4ccccc4)c4ccccc4)C(C)=C1C3(C)C)[C@]1(OC(C)=O)CO[C@@H]1C[C@@H]2O + Cc1[nH]c2ccc(F)cc2c1-c1nc2c3cccnc3c3ncccc3c2[nH]1
*A* 28.8

*Q* Provide value of viability, T/C for this record tested with 171881-019-R-J1-PDC tumor spheroids, viability: COc1ncnc(C2CC2)c1-c1ncc2cnn(Cc3ccc(-c4nc(C(F)(F)F)cn4C(C)C)cc3)c2n1 + CN(C)c1ccc(Nc2c3ccc(NC(=O)CCN4CCCC4)cc3nc3cc(NC(=O)CCN4CCCC4)ccc23)cc1
*A* 35.6

*Q* Provide value of viability, T/C for this record tested with 171881-019-R-J1-PDC tumor spheroids, viability: O=c1[nH]cc(F)c(=O)[nH]1 + CN(C)c1ccc(Nc2c3ccc(NC(=O)CCN4CCCC4)cc3nc3cc(NC(=O)CCN4CCCC4)ccc23)cc1
*A* 69.5

---

Assign viability, T/C to each entry below.
System: 171881-019-R-J1-PDC tumor spheroids, viability
Assay protocol: Anticancer human tumor 171881-019-R-J1-PDC cell line growth inhibition [GQUAD];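 note: spheroids exposed to compounds for 7 days; 100% = DMSO vehicle control viability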
Cond: second compound 0.1 µM; first compound 0.0316 µM; active compounds read low; spheroids with HUVEC and MSC
Just the number please, in %, no unit attached.

*Q* Look up viability, T/C for this compound: COc1ccc([C@@H](O)c2cc(-c3ncnc4cc(N5CCOCC5)ccc34)c(F)cc2Cl)nn1 + Cc1cnc(CNC(=O)c2c(=O)c3ccc(N4CCCN(C)CC4)nc3n3c2sc2ccccc23)cn1
*A* 75.6

*Q* Look up viability, T/C for this compound: O=C(c1cc(Cc2n[nH]c(=O)c3ccccc23)ccc1F)N1CCN(C(=O)C2CC2)CC1 + CN(C)c1ccc(Nc2c3ccc(NC(=O)CCN4CCCC4)cc3nc3cc(NC(=O)CCN4CCCC4)ccc23)cc1
*A* 107

*Q* Look up viability, T/C for this compound: CC1COCCN1c1cc(C2(O)CC3CCC(C2)O3)c2cnn(-c3ccn[nH]3)c2n1 (stereo unspecified) + Cc1[nH]c2ccc(F)cc2c1-c1nc2c3cccnc3c3ncccc3c2[nH]1
*A* 55.6

*Q* Look up viability, T/C for this compound: COc1ccc([C@@H](O)c2cc(-c3ncnc4cc(N5CCOCC5)ccc34)c(F)cc2Cl)nn1 + Cc1[nH]c2ccc(F)cc2c1-c1nc2c3cccnc3c3ncccc3c2[nH]1
*A* 87.2

*Q* Look up viability, T/C for this compound: CC(=O)O[C@H]1C(=O)[C@@]2(C)[C@H]([C@H](OC(=O)c3ccccc3)[C@]3(O)C[C@H](OC(=O)[C@H](O)[C@@H](NC(=O)c4ccccc4)c4ccccc4)C(C)=C1C3(C)C)[C@]1(OC(C)=O)CO[C@@H]1C[C@@H]2O + CN(C)c1ccc(Nc2c3ccc(NC(=O)CCN4CCCC4)cc3nc3cc(NC(=O)CCN4CCCC4)ccc23)cc1
*A* 44.7

*Q* Look up viability, T/C for this compound: CC1COCCN1c1cc(C2(O)CC3CCC(C2)O3)c2cnn(-c3ccn[nH]3)c2n1 (stereo unspecified) + Cc1cnc(CNC(=O)c2c(=O)c3ccc(N4CCCN(C)CC4)nc3n3c2sc2ccccc23)cn1
*A* 33.8

*Q* Look up viability, T/C for this compound: O=c1[nH]cc(F)c(=O)[nH]1 + Cc1cnc(CNC(=O)c2c(=O)c3ccc(N4CCCN(C)CC4)nc3n3c2sc2ccccc23)cn1
*A* 77.7

*Q* Look up viability, T/C for this compound: COc1cc(C2c3cc4c(cc3C(OC3OC5COC(C)OC5C(O)C3O)C3COC(=O)C23)OCO4)cc(OC)c1O (stereo unspecified) + Cc1[nH]c2ccc(F)cc2c1-c1nc2c3cccnc3c3ncccc3c2[nH]1
*A* 97.9

*Q* Look up viability, T/C for this compound: Cn1ncnc1[C@H]1c2n[nH]c(=O)c3cc(F)cc(c23)N[C@@H]1c1ccc(F)cc1 + Cc1cnc(CNC(=O)c2c(=O)c3ccc(N4CCCN(C)CC4)nc3n3c2sc2ccccc23)cn1
*A* 76

*Q* Look up viability, T/C for this compound: COc1cc(C2c3cc4c(cc3C(OC3OC5COC(C)OC5C(O)C3O)C3COC(=O)C23)OCO4)cc(OC)c1O (stereo unspecified) + CN(C)c1ccc(Nc2c3ccc(NC(=O)CCN4CCCC4)cc3nc3cc(NC(=O)CCN4CCCC4)ccc23)cc1
*A* 106

*Q* Look up viability, T/C for this compound: COc1ncnc(C2CC2)c1-c1ncc2cnn(Cc3ccc(-c4nc(C(F)(F)F)cn4C(C)C)cc3)c2n1 + Cc1cnc(CNC(=O)c2c(=O)c3ccc(N4CCCN(C)CC4)nc3n3c2sc2ccccc23)cn1
*A* 76.2

*Q* Look up viability, T/C for this compound: Cc1[nH]c2ccccc2c1CCNCc1ccc(/C=C/C(=O)NO)cc1 + Cc1[nH]c2ccc(F)cc2c1-c1nc2c3cccnc3c3ncccc3c2[nH]1
*A* 91.7

*Q* Look up viability, T/C for this compound: C=CCn1c(=O)c2cnc(Nc3ccc(N4CCN(C)CC4)cc3)nc2n1-c1cccc(C(C)(C)O)n1 + Cc1[nH]c2ccc(F)cc2c1-c1nc2c3cccnc3c3ncccc3c2[nH]1
*A* 103

*Q* Look up viability, T/C for this compound: CC1COCCN1c1cc(C2(O)CC3CCC(C2)O3)c2cnn(-c3ccn[nH]3)c2n1 (stereo unspecified) + CN(C)c1ccc(Nc2c3ccc(NC(=O)CCN4CCCC4)cc3nc3cc(NC(=O)CCN4CCCC4)ccc23)cc1
*A* 47.5

*Q* Look up viability, T/C for this compound: C=CC(=O)N1CCN(c2nc(=O)n(-c3c(C)ccnc3C(C)C)c3nc(-c4c(O)cccc4F)c(F)cc23)C(C)C1 (stereo unspecified) + Cc1cnc(CNC(=O)c2c(=O)c3ccc(N4CCCN(C)CC4)nc3n3c2sc2ccccc23)cn1
*A* 88.3

*Q* Look up viability, T/C for this compound: CC1COCCN1c1cc(C2(S(C)(=N)=O)CC2)nc(-c2ccnc3[nH]ccc23)n1 (stereo unspecified) + CN(C)c1ccc(Nc2c3ccc(NC(=O)CCN4CCCC4)cc3nc3cc(NC(=O)CCN4CCCC4)ccc23)cc1
*A* 98.9

*Q* Look up viability, T/C for this compound: CC1COCCN1c1cc(C2(S(C)(=N)=O)CC2)nc(-c2ccnc3[nH]ccc23)n1 (stereo unspecified) + Cc1cnc(CNC(=O)c2c(=O)c3ccc(N4CCCN(C)CC4)nc3n3c2sc2ccccc23)cn1
*A* 87.5

*Q* Look up viability, T/C for this compound: C#Cc1c(F)ccc2cc(O)cc(-c3ncc4c(N5CC6CCC(C5)N6)nc(OCC56CCCN5CC(F)C6)nc4c3F)c12 (stereo unspecified) + Cc1cnc(CNC(=O)c2c(=O)c3ccc(N4CCCN(C)CC4)nc3n3c2sc2ccccc23)cn1
*A* 75.7

*Q* Look up viability, T/C for this compound: C=CC(=O)N1CCN(c2nc(=O)n(-c3c(C)ccnc3C(C)C)c3nc(-c4c(O)cccc4F)c(F)cc23)C(C)C1 (stereo unspecified) + CN(C)c1ccc(Nc2c3ccc(NC(=O)CCN4CCCC4)cc3nc3cc(NC(=O)CCN4CCCC4)ccc23)cc1
*A* 94.8

*Q* Look up viability, T/C for this compound: CC[C@@]1(O)C(=O)OCc2c1cc1n(c2=O)Cc2cc3c(CN(C)C)c(O)ccc3nc2-1 + Cc1[nH]c2ccc(F)cc2c1-c1nc2c3cccnc3c3ncccc3c2[nH]1
*A* 87.1

*Q* Look up viability, T/C for this compound: C=CCn1c(=O)c2cnc(Nc3ccc(N4CCN(C)CC4)cc3)nc2n1-c1cccc(C(C)(C)O)n1 + CN(C)c1ccc(Nc2c3ccc(NC(=O)CCN4CCCC4)cc3nc3cc(NC(=O)CCN4CCCC4)ccc23)cc1
*A* 106

// data source = PubChem BioAssay AID2060498
